Biological target: recombinant human DPP-4 (Homo sapiens, UniProt P27487)
Construct: purchased Sigma Aldrich
Sequence (P27487 whole entry): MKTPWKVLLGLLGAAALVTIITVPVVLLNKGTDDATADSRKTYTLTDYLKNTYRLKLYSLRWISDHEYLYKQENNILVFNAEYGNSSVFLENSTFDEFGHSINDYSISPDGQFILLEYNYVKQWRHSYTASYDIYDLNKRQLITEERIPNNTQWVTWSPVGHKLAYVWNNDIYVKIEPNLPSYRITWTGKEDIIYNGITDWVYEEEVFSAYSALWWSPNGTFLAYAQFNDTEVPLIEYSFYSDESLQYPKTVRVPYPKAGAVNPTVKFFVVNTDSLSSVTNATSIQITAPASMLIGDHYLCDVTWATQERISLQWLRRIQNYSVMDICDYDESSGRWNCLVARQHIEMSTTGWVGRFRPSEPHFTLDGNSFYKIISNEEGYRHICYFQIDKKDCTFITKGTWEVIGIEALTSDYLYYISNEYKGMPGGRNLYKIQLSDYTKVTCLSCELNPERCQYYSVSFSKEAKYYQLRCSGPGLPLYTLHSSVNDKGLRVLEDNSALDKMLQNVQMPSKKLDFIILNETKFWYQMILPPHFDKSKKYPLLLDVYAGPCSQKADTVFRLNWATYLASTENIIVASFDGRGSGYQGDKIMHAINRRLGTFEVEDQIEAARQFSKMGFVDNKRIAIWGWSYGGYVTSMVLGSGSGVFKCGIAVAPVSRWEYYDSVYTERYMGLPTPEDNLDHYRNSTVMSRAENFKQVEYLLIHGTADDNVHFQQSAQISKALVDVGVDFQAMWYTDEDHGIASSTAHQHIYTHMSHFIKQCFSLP
Assay: In vitro DPP-4 inhibition assay (continuous fluorometric, Gly-Pro-AMC)
Type: biochemical
Details: recombinant human DPP-4, mean ± SE of four replicates
Measured Property: IC50 (nM)
Report only the number, with the unit nM understood.

Would you please look over these solved cases?
{"columns": ["Compound", "IC50 [nM]"],
 "data": [
  ["O=C(SC1=NC(c2ccc(Cl)cc2)=CC(c2ccc(Cl)cc2)N1)c1ccccc1CN1C(=O)c2ccccc2C1=O (centres unmarked) [Compound 10c]", 14.7],
  ["O=C(SC1=NC(c2ccccc2)=CC(c2ccccc2)N1)c1ccccc1CN1C(=O)c2ccccc2C1=O (centres unmarked) [Compound 10a]", 19.7],
  ["O=C(SC1=NC(c2ccc(Cl)cc2)=CC(c2ccco2)N1)c1ccccc1CN1C(=O)c2ccccc2C1=O (centres unmarked) [Compound 10i]", 0.66],
  ["O=C(SC1=NC(c2ccc(Cl)cc2)=CC(c2ccccc2)N1)c1ccccc1CN1C(=O)c2ccccc2C1=O (centres unmarked) [Compound 10f]", 31.5]
]}

// switching to the query compound
Give IC50 (recombinant human DPP-4 (Homo sapiens, UniProt P27487)) of the following compound: Nc1ccc(C2=CC(c3ccc(Cl)cc3)NC(SC(=O)c3ccccc3CN3C(=O)c4ccccc4C3=O)=N2)cc1 (centres unmarked) [Compound 10h]
10.4

---

Below: a set of entries, each annotated with reported IC50.
Biological target: recombinant human DPP-4 (Homo sapiens, UniProt P27487)
Test: In vitro DPP-4 inhibition assay (continuous fluorometric, Gly-Pro-AMC)
Settings: recombinant human DPP-4, mean ± SE of four replicates
Report only the number, with the unit nM understood.

{"columns": ["Compound", "IC50 / nM"],
 "data": [
  ["COc1ccc(C2C=C(c3ccc(Cl)cc3)N=C(SC(=O)c3ccccc3CN3C(=O)c4ccccc4C3=O)N2)cc1 (stereo not shown) [Compound 10b]", 3.78],
  ["Cc1ccc(C2=CC(c3ccc(Cl)cc3)NC(SC(=O)c3ccccc3CN3C(=O)c4ccccc4C3=O)=N2)cc1 (stereo not shown) [Compound 10d]", 2.19],
  ["Nc1ccc(C2=CC(c3cccc4ccccc34)NC(SC(=O)c3ccccc3CN3C(=O)c4ccccc4C3=O)=N2)cc1 (stereo not shown) [Compound 10j]", 7.35]
]}

// switching to the query compound
Would you mind telling me what IC50 value was observed for CN(C)c1ccc(C2C=C(c3ccc(Br)cc3)N=C(SC(=O)c3ccccc3CN3C(=O)c4ccccc4C3=O)N2)cc1 (stereo not shown) [Compound 10e] ?
1.42

---

Biological target: recombinant human DPP-4 (Homo sapiens, UniProt P27487)
Construct: purchased Sigma Aldrich
Assay: In vitro DPP-4 inhibition assay (continuous fluorometric, Gly-Pro-AMC)
Assay type: biochemical
Conditions: from IC50 values, versus alogliptin
Measured Property: Fold DPP-4 inhibitory activity relative to alogliptin (fold)
Report only the number, with the unit fold understood.

Would you please look over these solved cases?
{"columns": ["Compound", "Experimental Result"],
 "data": [
  ["Cc1ccc(C2=CC(c3ccc(Cl)cc3)NC(SC(=O)c3ccccc3CN3C(=O)c4ccccc4C3=O)=N2)cc1 (stereo not shown) [Compound 10d]", 2.6],
  ["COc1ccc(C2C=C(c3ccc(Cl)cc3)N=C(SC(=O)c3ccccc3CN3C(=O)c4ccccc4C3=O)N2)cc1 (stereo not shown) [Compound 10b]", 1.5],
  ["CN(C)c1ccc(C2C=C(c3ccc(Br)cc3)N=C(SC(=O)c3ccccc3CN3C(=O)c4ccccc4C3=O)N2)cc1 (stereo not shown) [Compound 10e]", 4]
]}

// switching to the query compound
Would you mind telling me what Fold DPP-4 inhibitory activity relative to alogliptin value was observed for O=C(SC1=NC(c2ccc(Cl)cc2)=CC(c2ccco2)N1)c1ccccc1CN1C(=O)c2ccccc2C1=O (stereo not shown) [Compound 10i] ?
8.6
